Tested on: HS 578T breast
Test: NCI tumour cell line growth inhibition, 48 h

molecule	value_qualifier	TGI [µM]
Cc1cccc(C(C)O)n1 (stereo not given)	>	100
Oc1ccccc1C=Nc1ccc(Oc2ccc(Cl)cc2)c(Cl)c1	=	52.5
COc1ncnc2c(NC3OC(CO)C(O)C3O)ncnc12 (stereo not given)	=	4.86
CCCCCCn1c(-c2ccc(C(=O)O/N=C(\N)c3ccc(OC)cc3)cc2)nc(-c2ccccc2)c1-c1ccccc1	=	3.1
CC(C)=CCC/C(C)=C/Cc1cc(/C=C/c2cc(O)c(CC=C(C)C)c(O)c2)cc(O)c1O	=	26.8
CCOC(=O)[C@H]1C[C@@H](C(=O)c2ccccc2)N2N=C(c3ccc(Br)cc3)C=C[C@H]12	>	100
COc1cc2c(/C=C3/C(=O)Nc4ccccc43)c(Cl)n(Cc3ccccc3)c2cc1C	>	100
NC(=S)N/N=C/c1cc(CN2CCOCC2)c(N)cn1	>	100
COc1cc(/C=C2\CCCC3=C2NC(N)=NC3c2cc(OC)c(OC)c(OC)c2)cc(OC)c1OC (stereo not given)	=	7.62
CCN(CC)CCC(=O)Nc1cccc2c1C(=O)c1c(c(O)c3ccccc3c1O)C2=O	>	100
